pKi: −log10 of the molar value. Counter-ions that a name gives are not always drawn.
For reference, pKi measured on human arginase II (hArgII) (Homo sapiens, UniProt P78540):

Before answering, review these 3 worked examples.
Write down the reported pKi of NC(CCCCB(O)O)(CC(=O)c1ccccc1)C(=O)O (centres unmarked) [Compound 1ax, hydrochloride] , test system: human arginase II (hArgII) (Homo sapiens, UniProt P78540).
Sequence (P78540 23-354): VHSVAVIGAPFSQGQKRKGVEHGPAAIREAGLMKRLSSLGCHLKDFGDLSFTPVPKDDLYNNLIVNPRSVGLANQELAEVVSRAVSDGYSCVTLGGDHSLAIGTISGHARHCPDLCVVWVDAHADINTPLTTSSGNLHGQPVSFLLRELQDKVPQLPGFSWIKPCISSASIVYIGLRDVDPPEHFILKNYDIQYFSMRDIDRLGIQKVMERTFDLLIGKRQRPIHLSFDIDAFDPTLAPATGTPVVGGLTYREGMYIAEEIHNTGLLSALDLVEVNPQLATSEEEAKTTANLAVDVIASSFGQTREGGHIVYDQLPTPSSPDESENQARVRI
7.00 to 8.00

Write down the reported pKi of CC(N)(CCNC(N)=NO)C(=O)O (centres unmarked) [Compound 54a, dihydrochloride] , test system: human arginase II (hArgII) (Homo sapiens, UniProt P78540).
6.30 to 7.00

Write down the reported pKi of Cc1ccc(S(=O)(=O)NCCCCC(N)(CCCCB(O)O)C(=O)O)cc1 (centres unmarked) [Compound 40a] , test system: human arginase II (hArgII) (Homo sapiens, UniProt P78540).
7.00 to 8.00

More entries:
Write down the reported pKi of CC(=O)NCCOCCC(N)(CCCCB(O)O)C(=O)O (centres unmarked) [Compound 38b] , test system: human arginase II (hArgII) (Homo sapiens, UniProt P78540).
6.30 to 7.00

Write down the reported pKi of CCC(=O)CC(N)(CCCCB(O)O)C(=O)O (centres unmarked) [Compound 1aw, hydrochloride] , test system: human arginase II (hArgII) (Homo sapiens, UniProt P78540).
7.00 to 8.00

Write down the reported pKi of Cl.NC(CCCCB(O)O)(CCCOc1ccccc1)C(=O)O (centres unmarked) [Compound 1d, hydrochloride] , test system: human arginase II (hArgII) (Homo sapiens, UniProt P78540).
8.00 to 10.00

Origin of the recorded values: patent US10118936B2
